# assayedSystem: ROCK2 (Homo sapiens)
# Sequence (O75116 whole entry, species assumed): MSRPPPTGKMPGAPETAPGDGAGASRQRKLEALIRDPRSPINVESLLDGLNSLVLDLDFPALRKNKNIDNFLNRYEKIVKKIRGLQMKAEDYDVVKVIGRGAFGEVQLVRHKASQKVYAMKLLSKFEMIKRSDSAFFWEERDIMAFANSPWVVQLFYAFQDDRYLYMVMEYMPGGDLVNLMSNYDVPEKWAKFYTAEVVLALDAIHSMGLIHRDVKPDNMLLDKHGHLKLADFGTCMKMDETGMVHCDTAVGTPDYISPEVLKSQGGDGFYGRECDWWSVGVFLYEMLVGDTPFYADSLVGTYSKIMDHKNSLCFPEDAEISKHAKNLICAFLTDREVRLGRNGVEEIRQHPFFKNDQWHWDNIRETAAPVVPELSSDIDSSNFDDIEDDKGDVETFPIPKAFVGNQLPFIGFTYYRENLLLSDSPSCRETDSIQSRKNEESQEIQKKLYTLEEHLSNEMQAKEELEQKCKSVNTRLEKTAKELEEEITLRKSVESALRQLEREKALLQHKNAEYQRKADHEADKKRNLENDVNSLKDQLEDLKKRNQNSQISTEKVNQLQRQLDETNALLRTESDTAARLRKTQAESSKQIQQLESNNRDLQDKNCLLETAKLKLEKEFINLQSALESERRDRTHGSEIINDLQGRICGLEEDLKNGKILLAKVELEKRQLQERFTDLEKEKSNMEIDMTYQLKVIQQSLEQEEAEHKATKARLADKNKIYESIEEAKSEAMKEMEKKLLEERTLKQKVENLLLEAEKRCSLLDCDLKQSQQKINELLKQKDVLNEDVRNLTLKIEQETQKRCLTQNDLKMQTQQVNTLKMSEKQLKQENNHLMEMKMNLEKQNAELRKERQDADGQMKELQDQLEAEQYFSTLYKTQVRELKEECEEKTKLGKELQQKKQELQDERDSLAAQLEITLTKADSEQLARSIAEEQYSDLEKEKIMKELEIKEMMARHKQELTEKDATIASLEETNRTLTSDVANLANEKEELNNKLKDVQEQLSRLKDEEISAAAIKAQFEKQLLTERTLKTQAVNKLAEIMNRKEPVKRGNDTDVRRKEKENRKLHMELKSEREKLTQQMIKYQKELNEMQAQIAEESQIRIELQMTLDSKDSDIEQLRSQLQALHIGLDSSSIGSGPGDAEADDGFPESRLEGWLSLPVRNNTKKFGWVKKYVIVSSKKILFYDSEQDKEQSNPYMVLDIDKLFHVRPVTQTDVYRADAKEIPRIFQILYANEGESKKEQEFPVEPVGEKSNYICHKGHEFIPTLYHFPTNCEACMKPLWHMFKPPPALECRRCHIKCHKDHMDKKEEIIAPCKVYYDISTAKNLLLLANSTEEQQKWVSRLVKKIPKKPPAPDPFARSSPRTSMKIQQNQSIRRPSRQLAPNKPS
readoutKind: IC50

Sample answers from the record:
[
  {
    "molecule": "[H][C@]1(c2n[nH]c(=O)c3ccccc32)C[C@]2(C[C@@H](NC(=O)c3cc4cccc(-c5cnn(C)c5)c4[nH]3)C2)C1 (stereo partly drawn)",
    "assayedSystem": "ROCK2 (Homo sapiens)",
    "reportedValue": "5.1 to 15 nM"
  },
  {
    "molecule": "[H][C@]1(c2n[nH]c(=O)c3ccccc32)C[C@]2(C[C@@H](NC(=O)c3ccc(C(F)(F)F)cn3)C2)C1 (stereo partly drawn)",
    "assayedSystem": "ROCK2 (Homo sapiens)",
    "reportedValue": "5.1 to 15 nM"
  },
  {
    "molecule": "[H][C@]1(c2n[nH]c(=O)c3ccccc32)C[C@]2(C[C@@H](N(CC)C(=O)c3nn(C)c4ccccc34)C2)C1 (stereo partly drawn)",
    "assayedSystem": "ROCK2 (Homo sapiens)",
    "reportedValue": "100 to 2100 nM"
  },
  {
    "molecule": "Cc1sc(N2CCC(C#N)C2)nc1C(=O)NC1CC2(C1)CC(c1n[nH]c(=O)c3ccccc13)C2 (stereo not drawn) [Example 56]",
    "assayedSystem": "ROCK2 (Homo sapiens)",
    "reportedValue": "5.1 to 15 nM"
  },
  {
    "molecule": "Cc1sc(N2CCC(C#N)C2)nc1C(=O)NC1CC2(C1)CC(c1n[nH]c(=O)c3ccccc13)C2 (stereo not drawn) [Example 55]",
    "assayedSystem": "ROCK2 (Homo sapiens)",
    "reportedValue": "5.1 to 15 nM"
  }
]

### Prompt Tell me its IC50 on ROCK2 (Homo sapiens): [H][C@]1(c2n[nH]c(=O)c3ccccc32)C[C@@]2(C[C@H](NC(=O)c3cc4cccc(OC)c4[nH]3)C2)C1 (stereo partly drawn)
### Response 5.1 to 15 nM

### Prompt Please report the measured IC50 for [H][C@]1(c2n[nH]c(=O)c3ccccc32)C[C@]2(C[C@@H](NC(=O)c3cnc4cc(-c5cn(C(C)C)nc5C(F)(F)F)ccn34)C2)C1 (stereo partly drawn) tested on ROCK2 (Homo sapiens).
### Response 2.01 to 5 nM

### Prompt For ROCK2 (Homo sapiens), give IC50 of the listed molecule: CN1CCN(c2ccc3c(C(=O)NC4CC5(C4)CC(c4n[nH]c(=O)c6ccccc46)C5)cnn3c2)CC1 (stereo not drawn)
### Response 0.2 to 2 nM

### Prompt Please indicate recorded IC50 of [H][C@]1(c2n[nH]c(=O)c3ccccc32)C[C@]2(C[C@@H](NC(=O)c3ccc(C#N)c(C)n3)C2)C1 (stereo partly drawn) measured with ROCK2 (Homo sapiens).
### Response 15.1 to 100 nM

### Prompt Given CC(C)(O)Cn1nc(C(=O)NC2CC3(C2)CC(c2n[nH]c(=O)c4ccccc24)C3)c2cc(F)ccc21 (stereo not drawn) , report its IC50 on ROCK2 (Homo sapiens).
### Response 2.01 to 5 nM

### Prompt Jot down IC50 (ROCK2 (Homo sapiens)) of [H][C@]1(c2n[nH]c(=O)c3ccccc32)C[C@]2(C[C@@H](NC(=O)c3cnc4cc(N(C)CCO)ccn34)C2)C1 (stereo partly drawn) .
### Response 2.01 to 5 nM

### Prompt Would you please give the reported IC50 of COc1ccc(C(=O)NC2CC3(C2)CC(c2n[nH]c(=O)c4ccccc24)C3)nc1 (stereo not drawn) with ROCK2 (Homo sapiens)?
### Response 100 to 2100 nM

### Prompt Please tell me the measured IC50 for O=C(NC1CC2(C1)CC(c1n[nH]c(=O)c3ccccc13)C2)c1cnn2cc(COCCN3CCOCC3)ccc12 (stereo not drawn) ; system: ROCK2 (Homo sapiens).
### Response 2.01 to 5 nM

### Prompt Identify measured IC50 obtained with ROCK2 (Homo sapiens) for [H][C@]1(c2n[nH]c(=O)c3ccccc32)C[C@]2(C[C@@H](NC(=O)c3cnn4cccc(Br)c34)C2)C1 (stereo partly drawn) .
### Response 15.1 to 100 nM

### Prompt Check ROCK2 (Homo sapiens) data and give IC50 for [H][C@]1(c2n[nH]c(=O)c3ccccc32)C[C@]2(C[C@@H](n3c(=O)[nH]c4ccccc43)C2)C1 (stereo partly drawn) .
### Response 100 to 2100 nM
